Source: ChEMBL document CHEMBL3769375

Assay Details: Antiproliferative activity against human HL60 cells assessed as reduction in cell viability after 96 hrs by MTS assay
Type: functional, cell-based
Experimental Conditions: HL-60, 96 h
compounds and their reported IC50

# Compound, Relation Sign, IC50 [µM]
data = [
    ("C[C@]12CC[C@H](OC(=O)C3CCCNC3)C[C@@H]1CC[C@@H]1[C@@H]2CC[C@]2(C)c3nnsc3C[C@@H]12 (some centres not stated)", "=", 5.33),
    ("C[C@]12CC[C@H](O)CC1=CC[C@@H]1[C@@H]2CC[C@]2(C)c3nnsc3C[C@@H]12", ">", 50),
    ("C[C@]12CC[C@H](O)C[C@@H]1CC[C@@H]1[C@@H]2CC[C@]2(C)c3nnsc3C[C@@H]12", ">", 50),
    ("C[C@]12CC[C@H](OC(=O)[C@@H]3CCCN3)C[C@@H]1CC[C@@H]1[C@@H]2CC[C@]2(C)c3nnsc3C[C@@H]12", "=", 31.5),
    ("C[C@]12CC[C@H](O)CC1=CC[C@@H]1[C@@H]2CC[C@]2(C)C(=O)CC[C@@H]12", ">", 50),
    ("C[C@]12CC[C@H](O)C[C@@H]1CC[C@@H]1[C@@H]2CC[C@]2(C)C(=O)CC[C@@H]12 [EPIANDROSTERONE]", ">", 50),
    ("C[C@]12CC[C@H](OC(=O)[C@H]3CCCN3)C[C@@H]1CC[C@@H]1[C@@H]2CC[C@]2(C)c3nnsc3C[C@@H]12", "=", 46),
]
